System: HSV-1
Assay: In vitro antiviral test, 50% plaque formation inhibition, anti-HSV-1 activity
Assay type: cell-based, herpes simplex virus type 1 (HSV-1)
Details: Human alphaherpesvirus 1, read-out: Anti-HSV-1 activity (ED50)
Structures can show the parent of a compound that is named as a salt.
assay-readout: pEC50
Keep it numeric: pEC50 is minus log10 of the concentration in mol/L.

CC(C)C(N)C(=O)OCC1OC(n2cc(/C=C/Cl)c(=O)[nH]c2=O)C(O)C1O (centres unmarked) [Compound 2, hydrochloride] = 6.92

// moving on: another record for pEC50
Quick one: pEC50 of O=C(OCC1OC(n2cc(/C=C/Cl)c(=O)[nH]c2=O)C(O)C1O)C1CCNCC1 (centres unmarked) [Compound 1, hydrochloride] ?
6.40
